# Test system: MS2 coat protein
# experiment description: apparent Kd, MS2 coat protein; higher = weaker binding; RNA-MaP array; theophylline 2 mM where present
# conditions used: ligand present: theophylline; designed as: OFF switch for theophylline
Param threshold (400 nM) applies to apparent Kd; output yes (1) when value >= threshold, no (0) when value < threshold.

seq_text=AAUAAGUAUCUGCUAGGUGAUCCAGCAGAUACCAGCUAGGAAACUAGCCCUUGGCAGCUGCAACAUGAGGAUCACCCAUGUAAUA target_under_test="MS2 coat protein" class="no (0)"
seq_text=UGACAUUGCUCAGAUACCAGACAUGAGGAUCACCCAUGUACCAAGAAAACGUACAUAAAUGUCCCUUGGCAGCUGAGCAAUGUCU target_under_test="MS2 coat protein" class="yes (1)"
seq_text=ACGAUAGGACAUGAGGAUCACCCAUGUGAUACCAGCCUGGAAACAGGCCCUUGGCAGCACAAAUACUCCAGAAACCUAUCGAAAA target_under_test="MS2 coat protein" class="yes (1)"
seq_text=AGCAUACAUUCUGAUACCAGAGACAUGAGGAUCACCCAUGUCCGAUCGUCCUGCCUCAGACUCCCUUGGCAGCAGGAUGUGUGCU target_under_test="MS2 coat protein" class="no (0)"
seq_text=ACAUGAGGAUCACCCAUGUUCCUCAUUGAUACCAGUGAAUUUAGACGCCCUUGGCAGCGAGUUUUUUUAUAAGAUGUUUUUUUUU target_under_test="MS2 coat protein" class="yes (1)"
seq_text=ACAUGAAGAUUAAUCGUGGGCAUACUCGAUACCAGUAUUUUAACCUACCCUUGGCAGCGACAUGAGGAUCACCCAUGUGAGAUGA target_under_test="MS2 coat protein" class="no (0)"
seq_text=AUCUCAUAGAGUGAUACCAGACUACAUGAGGAUCACCCAUGUUACAUUUAAAUAUCAUUUGUCCCUUGGCAGCACAUGAAGUACA target_under_test="MS2 coat protein" class="no (0)"
seq_text=UAUAUAUAGAUGGAUACCAGCAGAGAAAACGUUUAUCCUAACAUGAGGAUCACCCAUGUAUGCCCUUGGCAGCUGUUUAUAUAUA target_under_test="MS2 coat protein" class="no (0)"
seq_text=AUAACAUGAGGAUCACCCAUGUAAGCAGAUACCAGCUAGGAAACUAGCCCUUGGCAGCUGCAAUCCUCAUGUAUUGCAGCUGCAA target_under_test="MS2 coat protein" class="no (0)"
seq_text=AAGCUGCCAAGAACAUGGGUGAAAUGUGAUACCAGCUAGGAAACUAGCCCUUGGCAGCACAUGAGGAUCACCCAUGUAAUAAUAA target_under_test="MS2 coat protein" class="no (0)"
seq_text=AAUAAGCAGCUGCCUUCCUCAUGAGCAGAUACCAGCUAGGAAACUAGCCCUUGGCAGCUGCAACAUGAGGAUCACCCAUGUAAUA target_under_test="MS2 coat protein" class="no (0)"
